- experimental-system: Bile salt export pump (Homo sapiens); further: assay procedure not described here
- Sequence (O95342 whole entry): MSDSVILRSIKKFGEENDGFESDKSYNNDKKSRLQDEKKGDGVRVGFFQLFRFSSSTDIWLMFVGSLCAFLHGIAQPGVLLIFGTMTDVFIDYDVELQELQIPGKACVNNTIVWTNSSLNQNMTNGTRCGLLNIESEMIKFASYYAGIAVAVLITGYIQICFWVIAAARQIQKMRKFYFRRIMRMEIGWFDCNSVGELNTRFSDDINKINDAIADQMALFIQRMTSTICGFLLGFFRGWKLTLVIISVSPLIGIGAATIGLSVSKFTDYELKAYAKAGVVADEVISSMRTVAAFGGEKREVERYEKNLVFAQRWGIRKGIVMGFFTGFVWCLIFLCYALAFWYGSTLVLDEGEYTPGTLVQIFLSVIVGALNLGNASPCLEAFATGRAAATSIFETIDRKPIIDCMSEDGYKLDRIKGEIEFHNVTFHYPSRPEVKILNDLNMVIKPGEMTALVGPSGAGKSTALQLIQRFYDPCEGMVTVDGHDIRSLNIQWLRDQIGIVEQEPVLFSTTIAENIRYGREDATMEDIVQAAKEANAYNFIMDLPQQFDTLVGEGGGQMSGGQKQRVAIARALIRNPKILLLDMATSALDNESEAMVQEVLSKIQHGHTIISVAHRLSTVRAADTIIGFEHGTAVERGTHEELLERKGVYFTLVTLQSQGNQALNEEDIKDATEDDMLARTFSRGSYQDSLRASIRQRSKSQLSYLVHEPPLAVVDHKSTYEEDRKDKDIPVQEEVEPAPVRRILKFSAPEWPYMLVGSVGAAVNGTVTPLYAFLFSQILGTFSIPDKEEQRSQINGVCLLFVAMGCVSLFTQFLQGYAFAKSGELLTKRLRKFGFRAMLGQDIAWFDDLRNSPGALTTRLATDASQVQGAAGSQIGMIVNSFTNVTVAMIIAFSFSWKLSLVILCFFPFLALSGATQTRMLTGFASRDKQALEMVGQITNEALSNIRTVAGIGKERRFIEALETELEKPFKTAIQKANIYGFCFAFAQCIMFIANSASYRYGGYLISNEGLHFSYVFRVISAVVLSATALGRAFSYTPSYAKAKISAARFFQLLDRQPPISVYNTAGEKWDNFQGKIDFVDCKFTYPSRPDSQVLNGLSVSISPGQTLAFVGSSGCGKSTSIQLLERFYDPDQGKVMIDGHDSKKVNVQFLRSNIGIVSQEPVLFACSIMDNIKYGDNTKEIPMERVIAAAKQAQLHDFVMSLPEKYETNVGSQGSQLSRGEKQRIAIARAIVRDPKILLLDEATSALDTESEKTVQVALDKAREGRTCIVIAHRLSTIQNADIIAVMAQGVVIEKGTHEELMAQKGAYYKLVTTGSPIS
- Format: functional
quantity-measured: AC50

Let me know recorded AC50 for CC(=O)NO [ACETOHYDROXAMIC ACID] , thanks. > 300 µM

Give recorded AC50. CC(CN1c2ccccc2Sc2ccccc21)N(C)C (stereo not drawn) > 300 µM

Give the reported AC50 for this compound. CC(C)[C@H](N)C(=O)OCCOCn1cnc2c(=O)[nH]c(N)nc21 > 300 µM

###

- experimental-system: 5-hydroxytryptamine receptor 1A (Homo sapiens, UniProt P08908); further: assay procedure not described here
- Sequence (P08908 whole entry): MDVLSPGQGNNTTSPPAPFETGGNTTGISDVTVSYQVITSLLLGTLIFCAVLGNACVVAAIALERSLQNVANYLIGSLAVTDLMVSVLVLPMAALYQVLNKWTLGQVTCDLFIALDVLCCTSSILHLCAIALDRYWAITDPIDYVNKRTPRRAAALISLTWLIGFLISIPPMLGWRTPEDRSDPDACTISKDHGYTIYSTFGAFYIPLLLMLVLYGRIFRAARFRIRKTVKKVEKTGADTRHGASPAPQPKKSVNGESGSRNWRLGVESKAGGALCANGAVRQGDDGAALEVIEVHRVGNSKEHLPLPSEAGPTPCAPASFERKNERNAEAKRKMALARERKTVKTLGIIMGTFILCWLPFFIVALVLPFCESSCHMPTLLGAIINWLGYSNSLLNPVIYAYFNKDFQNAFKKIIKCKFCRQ
- Type: functional, cell-based
Assign AC50 to each entry below.

// fetch AC50 given entry O=C(NCCO[N+](=O)[O-])c1cccnc1 > 30 µM

Identify AC50 associated with the compound Oc1ccc(CCNCCCCCCNCCc2ccccc2)cc1O > 30 µM

Please report AC50 for the following compound: C[N+](C)(C)CCOP(=O)(O)OP(=O)([O-])OC[C@H]1O[C@@H](n2ccc(N)nc2=O)[C@H](O)[C@@H]1O > 30 µM

Assign AC50 to the following record: c1ccc(C2(N3CCCCC3)CCCCC2)cc1 > 30 µM

Look up AC50 of CNCCc1ccc(OC(=O)C(C)C)c(OC(=O)C(C)C)c1 and report it. > 30 µM

Provide measured AC50 value, entry: CCC(NC(C)C)C(O)c1ccc(O)c2[nH]c(=O)ccc12 (stereo not given) > 30 µM

Write down AC50 measured for item CC(C)(O/N=C(\C(=O)N[C@@H]1C(=O)N2C(C(=O)[O-])=C(C[n+]3ccccc3)CS[C@H]12)c1csc(N)n1)C(=O)O > 300 µM

Note AC50 for the compound shown: COc1cc(C)c(/C=C/C(C)=C/C=C/C(C)=C/C(=O)O)c(C)c1C > 10 µM

Determine from records and report AC50 for Cc1ccccc1-n1c(CF)nc2ccc(N)cc2c1=O > 10 µM

Input Cn1cc(C(=O)[C@@H]2CCc3nc[nH]c3C2)c2ccccc21 , output reported AC50. > 30 µM
